tested on: Mus musculus; experiment: Induction of flushing response in ip dosed C57/BL6 mouse; assay type: organism-based, C57Bl/6; details: in vivo
property_label: Activity

Use the examples below as a reference point.
structure_smiles | property_label | reported
O=C(O)c1cccnc1 | Activity | Toxic
O=C(O)c1cc(Cc2cccc(Br)c2)[nH]n1 | Activity | Non-toxic
Cc1cc(C(=O)O)n[nH]1 | Activity | Toxic
O=C(O)c1cc(Cc2cccc(Cl)c2)[nH]n1 | Activity | Non-toxic
Cc1cc(C(=O)O)on1 | Activity | Toxic

Kindly give each listed record's Activity.
1. CC(C)c1cc(C(=O)O)n[nH]1
2. O=C(O)c1cc(Cc2cccc(F)c2)[nH]n1

1. Non-toxic
2. Non-toxic

----------
tested on: Rattus norvegicus; assay: Reduction of free fatty acid level in po dosed Sprague-Dawley rat plasma relative to baseline; type: functional; design: scale not given: the % may be the effect or the level left
Can you tell me Activity for the items I'm about to list?
One number for each entry, in %.

Use the examples below as a reference point.
structure_smiles | target_under_test | Activity (%)
CC(C)c1cc(C(=O)O)n[nH]1 | Rattus norvegicus | 75
Cc1cc(C(=O)O)n[nH]1 | Rattus norvegicus | 75
O=C(O)c1cc(Cc2cccc(Cl)c2)n[nH]1 | Rattus norvegicus | 75

Kindly give each listed record's Activity.
1. Cc1cc(C(=O)O)on1
2. O=C(O)c1cc(Cc2cccc(F)c2)[nH]n1

75
75

Under Rattus norvegicus: Activity value of O=C(O)c1cc(Cc2cccc(Br)c2)[nH]n1 ?
75
